Target: human mAChR M4 (Homo sapiens)
Sequence (P08173 whole entry): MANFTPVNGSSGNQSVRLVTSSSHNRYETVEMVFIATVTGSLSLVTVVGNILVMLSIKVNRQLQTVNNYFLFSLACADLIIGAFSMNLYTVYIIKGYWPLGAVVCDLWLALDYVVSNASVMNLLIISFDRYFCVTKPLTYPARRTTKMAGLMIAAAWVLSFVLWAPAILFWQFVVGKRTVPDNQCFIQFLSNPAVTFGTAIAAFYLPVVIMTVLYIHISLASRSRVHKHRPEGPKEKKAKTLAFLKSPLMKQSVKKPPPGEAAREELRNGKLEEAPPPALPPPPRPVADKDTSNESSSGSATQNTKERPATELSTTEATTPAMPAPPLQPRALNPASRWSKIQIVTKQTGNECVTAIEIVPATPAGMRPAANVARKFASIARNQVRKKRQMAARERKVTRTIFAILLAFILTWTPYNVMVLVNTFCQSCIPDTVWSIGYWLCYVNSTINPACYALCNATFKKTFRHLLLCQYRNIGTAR
Assay: mAChR M4 cell-based functional assay: calcium mobilization (Fluo-4, FDSS), potentiation of EC20 acetylcholine response in hM4-Gqi5 CHO-K1 cells
Conditions: potentiation of EC20 acetylcholine response, calcium mobilization, human M4
measurement.type: pEC50
Bear in mind: pEC50 is minus log10 of a mol/L concentration; give just that figure.

-- ask So what does the record say about pEC50 for Cc1cc2nccc(=O)n2nc1N1CCc2ncc(N3CCOC(c4ccccc4)C3)cc2C1 (stereo in doubt) [Compound 2-96] ?
-- reply 5.85

-- ask Input "Cc1cc(=O)n2nc(N3CCc4ncc(-c5ccco5)cc4C3)c(C)cc2n1"
-- reply 6.95

-- ask Input "Cc1cc(=O)n2nc(N3CCc4ncc(-c5cc(F)ccc5F)cc4C3)c(C)cc2n1"
-- reply 5.80

-- ask Input "Cc1cc2nccc(=O)n2nc1N1CCc2ncc(-c3cccc(C)c3C)cc2C1"
-- reply 6.39

-- ask Input "Cc1cc2nc(C3CC3)cc(=O)n2nc1N1CCc2ncc(N3CCCn4nccc43)cc2C1"
-- reply 8.15

-- ask Input "Cc1cc(=O)n2nc(N3CCc4ncc(-c5ccncc5C)cc4C3)c(C)c(C)c2n1"
-- reply 7.14

-- ask Input "COc1ccsc1-c1cnc2c(c1)CN(c1nn3c(=O)cc(C)nc3c(C)c1C)CC2"
-- reply 6.72

-- ask Input "CCn1cc(-c2cnc3c(c2)CN(c2nn4c(=O)cc(C)nc4cc2C)CC3)cn1"
-- reply 6.47
